Measured Ka (log10 Ka (M-1)), listed per entry.
# Test system: IgG Fab2 fragment (Homo sapiens)
# PROTOCOL DESCRIPTION: filter
# MEASUREMENT SETUP: 37.5 mM NaCl, 3.75 mM sodium citrate, pH 6.0

{"ENTRY SEQUENCE": "TGGGCCGGTAACGGGTTACCGTAAGGTCCC [RAD10]", "Ka (log10 Ka (M-1))": 6.43}
{"ENTRY SEQUENCE": "TTTTCGCGCGTTAACGCGCGAA [RAD16]", "Ka (log10 Ka (M-1))": 6.23}
{"ENTRY SEQUENCE": "TTTTCGCGCGTACGCGCGCGAA [RAD15]", "Ka (log10 Ka (M-1))": 5.33}
{"ENTRY SEQUENCE": "CCCTCCCTGGGCTTTTTTTGATTTTTCTTAA [RAD4]", "Ka (log10 Ka (M-1))": 6.89}
{"ENTRY SEQUENCE": "TGGTTGGTTTTTGGAAGGATTTTTTCCTTCC [RAD3]", "Ka (log10 Ka (M-1))": 6.97}
{"ENTRY SEQUENCE": "CCTCTTCTTTTTCTTCTC [RAD20]", "Ka (log10 Ka (M-1))": 6.9}
{"ENTRY SEQUENCE": "CTCTCTCTTTTTCTCTCTCTTTTTGAGAGAG [RAD9]", "Ka (log10 Ka (M-1))": 6.44}
{"ENTRY SEQUENCE": "GAGAGAGTTTTTGAGAGAGTTTTTCTCTCTC [RAD7]", "Ka (log10 Ka (M-1))": 6.68}
{"ENTRY SEQUENCE": "CCTTCCTTTGGAAGGTTG [RAD23]", "Ka (log10 Ka (M-1))": 5.64}
{"ENTRY SEQUENCE": "CCTCTTCTTTTTCTTCTCCTTTTTGGAGAAG [RAD2]", "Ka (log10 Ka (M-1))": 6.45}

---

# Test system: IgG Fab2 fragment (Mus musculus)
# PROTOCOL DESCRIPTION: filter
# MEASUREMENT SETUP: 37.5 mM NaCl, 3.75 mM sodium citrate, pH 6.0
Measured Ka (log10 Ka (M-1)), listed per entry.

{"ENTRY SEQUENCE": "CCTTCCTTTGGAAGGTTG [RAD23]", "Ka (log10 Ka (M-1))": 6.33}
{"ENTRY SEQUENCE": "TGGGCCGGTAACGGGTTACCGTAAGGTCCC [RAD10]", "Ka (log10 Ka (M-1))": 6.76}
{"ENTRY SEQUENCE": "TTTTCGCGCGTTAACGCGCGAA [RAD16]", "Ka (log10 Ka (M-1))": 6.11}
{"ENTRY SEQUENCE": "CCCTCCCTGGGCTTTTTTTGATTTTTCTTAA [RAD4]", "Ka (log10 Ka (M-1))": 7.09}
{"ENTRY SEQUENCE": "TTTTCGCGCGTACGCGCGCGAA [RAD15]", "Ka (log10 Ka (M-1))": 6.21}
{"ENTRY SEQUENCE": "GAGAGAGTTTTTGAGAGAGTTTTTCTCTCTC [RAD7]", "Ka (log10 Ka (M-1))": 6.97}
{"ENTRY SEQUENCE": "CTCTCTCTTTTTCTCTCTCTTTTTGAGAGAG [RAD9]", "Ka (log10 Ka (M-1))": 6.75}
{"ENTRY SEQUENCE": "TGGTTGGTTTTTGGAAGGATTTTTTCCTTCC [RAD3]", "Ka (log10 Ka (M-1))": 7.09}
{"ENTRY SEQUENCE": "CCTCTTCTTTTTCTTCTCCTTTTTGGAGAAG [RAD2]", "Ka (log10 Ka (M-1))": 6.71}
{"ENTRY SEQUENCE": "CCTCTTCTTTTTCTTCTC [RAD20]", "Ka (log10 Ka (M-1))": 7.41}

These entries and their values trace back to patent US20100233678.
